tgt: T1, Fusion protein of extracellular domain of human TIGIT and His-tag (human TIGIT ECD-his) (human)
T1 chain: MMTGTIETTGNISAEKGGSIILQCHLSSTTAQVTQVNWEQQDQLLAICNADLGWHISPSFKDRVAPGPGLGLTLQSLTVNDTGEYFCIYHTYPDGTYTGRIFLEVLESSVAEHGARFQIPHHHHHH
test: BIAcore
quantity: pKd
Convention used: pKd is expressed as -log10 of the molar concentration.

Before answering, review these 4 worked examples.
binder: TIGIT-006-H2L1 (antibody, V domains shown, Humanized anti-TIGIT antibody) VH: EVQLQESGPGLVKPSETLSLTCAVSGYSMTSDYWNWIRQPPGKGLEWIGYISYSGRTYYNPSLKSRVTISRDTSKNQFSLKLSSVTAADTAVYYCARGDYSNYGGAMYDWGQGTTVTVSS VL: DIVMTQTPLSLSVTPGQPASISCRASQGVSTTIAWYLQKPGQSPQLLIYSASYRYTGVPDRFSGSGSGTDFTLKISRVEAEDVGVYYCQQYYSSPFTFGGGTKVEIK
pKd: 9.02
--
binder: TIGIT-070-H3L1 (antibody, V domains shown, Humanized anti-TIGIT antibody) VH: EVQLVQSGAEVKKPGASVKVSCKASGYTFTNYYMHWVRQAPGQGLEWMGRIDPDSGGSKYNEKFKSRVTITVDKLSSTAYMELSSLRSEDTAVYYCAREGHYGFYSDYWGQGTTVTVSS VL: DIQMTQSPSSLSASVGDRVTITCRVSENIYSYLAWYQQKPGKSPKLLIYNAKTLAEGVPSRFSGSGSGTDFTLTISSLQPEDFATYYCQHHYGNPLTFGPGTKVDIK
pKd: 9.92
--
binder: TIGIT-006-H3L3 (antibody, V domains shown, Humanized anti-TIGIT antibody) VH: EVQLQESGPGLVKPSETLSLTCAVSGYSMTSDYWNWIRQPPGKKLEWIGYISYSGRTYYNPSLKSRVTISRDTSKNQFSLKLSSVTAADTAVYYCARGDYSNYGGAMYDWGQGTTVTVSS VL: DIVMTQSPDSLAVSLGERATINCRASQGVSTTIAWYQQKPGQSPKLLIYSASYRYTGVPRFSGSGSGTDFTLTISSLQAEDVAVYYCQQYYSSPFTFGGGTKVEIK
pKd: 9.32
--
binder: TIGIT-070-H2L2 (antibody, V domains shown, Humanized anti-TIGIT antibody) VH: EVQLVQSGAEVKKPGASVKVSCKASGYTFTNYYMHWVRQAPGQRLEWMGRIDPDSGGSKYNEKFKSRVTITVDKLSSTAYMELSSLRSEDTAVYYCAREGHYGFYSDYWGQGTTVTVSS VL: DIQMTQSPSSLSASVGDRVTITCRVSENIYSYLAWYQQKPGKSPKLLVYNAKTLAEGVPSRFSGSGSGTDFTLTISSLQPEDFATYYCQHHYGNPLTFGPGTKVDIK
pKd: 10.07

--- query ---
Looking for the measured pKd of TIGIT-006-H5L1 (antibody, V domains shown, Humanized anti-TIGIT antibody) VH: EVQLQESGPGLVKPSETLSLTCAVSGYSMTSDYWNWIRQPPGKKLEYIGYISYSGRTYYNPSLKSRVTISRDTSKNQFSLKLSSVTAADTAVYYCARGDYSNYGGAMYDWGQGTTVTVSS VL: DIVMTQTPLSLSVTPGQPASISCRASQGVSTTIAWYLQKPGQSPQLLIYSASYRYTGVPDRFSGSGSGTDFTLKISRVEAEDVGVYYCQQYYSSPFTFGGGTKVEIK , can you help? 10.15
